Tested on: SF-539 CNS
Assay: NCI-60 one-dose screen, 48 h (100 = growth as untreated, 0 = no growth, -100 = all killed)
Conditions: 10 µM unless noted
Procedure: Cells are grown in 96 well plates and exposed to the test compound for 48 hours. Compounds are tested at a single concentration, which is 10^-5 M for most compounds. The reported endpoint is percent growth (GI% or GIPRCNT), where numbers from 0 - 100% represent growth inhibition, and numbers from -100% - 0 represent cell death. For example, a value of 40 represents 60% growth inhibition. A value of 0 means no net growth occurred over the course of the experiment. […]
Compounds without any hit were thinned out: in the full panel of roughly 83,000, 20% have a hit.
We begin with a simple list: items and their reported growth.
Answer with a number only, understood to be in %.

Reported growth, molecule [O-]/[N+](=C\c1ccc(-n2cc(Cc3ccccc3Cc3cn(-c4ccc(/C=[N+](/[O-])c5ccccc5)cc4)nn3)nn2)cc1)c1ccccc1 : ____
92.2

State the recorded growth for this entry: Cc1ccc(-c2nc(N3CCCNCC3)c3oc(-c4ccc(C)cc4)nc3n2)cc1
73.8

Request the reported growth associated with S=c1sc2c(Cl)nc(-c3cccnc3)nc2n1-c1ccccc1
6.15

Return reported growth; argument: Nc1cnc(C(=O)NNc2nc3cc(F)ccc3n3cccc23)cn1
33.9

If you can, please state the reported growth value of Cc1c(O)cc(-c2cnc(Nc3ccccc3)s2)c(O)c1C .
95

Can you share its growth? I mean this molecule: Cc1cccc(/C=C2\CN(C(=O)OC(C)(C)C)C/C(=C\c3cccc(C)c3)C2=O)c1
104

Would you mind telling me what growth value was observed for CN(c1cc2ncc(=O)[nH]c2cc1NC(N)=NCc1ccc(Cl)cc1)C1CCCCC1 ?
66.4

What value of growth has been recorded for this entry: COc1ccc(Nc2ncc(Br)c(NCCCNC(=O)C3CCCC3)n2)cc1
2.9

Entry OB1OCc2cc(/C=C/c3cccc(C(F)(F)F)c3)ccc21 : reported growth = ?
-58.9

Need growth, item Fc1cccc(Oc2ccc(Nc3ncnc4ccc(OCCCN5CCOCC5)cc34)cc2Cl)c1
88.1

Any idea what its growth is? The molecule is COc1ccc(-c2cc(-c3cc(OC)c(OC)c(OC)c3)c(C#N)c(=O)n2CCCCC(=O)NO)cc1
57.7

Which growth is listed for CCC(C(=O)[C@@H](C)[C@@H](O)[C@H](C)[C@@H]1O[C@@H]([C@@H](CC)C(=O)ONC(=O)c2ccccc2)CC[C@@H]1C)[C@H]1O[C@]2(C=CC(=O)[C@]3(CC[C@@](C)([C@H]4CC[C@](O)(CC)[C@H](C)O4)O3)O2)[C@H](C)C[C@@H]1C (stereo not given in full) ?
-62.8

// lookup growth for O=C(Nc1ccc(Oc2cccc(Cl)c2)c(Cl)c1)c1cnccn1
-35.2

Give the measured growth of O=C1C(Cl)=C(Nc2ccc(S(=O)(=O)N3CCOCC3)cc2)C(=O)c2ccccc21 .
2.06

Quick one: growth of CCn1cc(C(=O)NNC(=S)Nc2ccc(C)cc2)c(=O)c2ccc(C)nc21 ?
102

Reported growth, molecule COc1ccc(Cc2cnc(NC(=O)c3cc(C)oc3C)s2)cc1 : ____
32.5

If you can, please state the reported growth value of CC1(C)COB(OCC(C)(C)COB2OCC(C)(C)CO2)OC1 .
98.3

Entry COC(=O)c1nc(-c2ccccc2)oc1S(=O)(=O)Cc1ccccc1 : reported growth = ?
100

Bench note: what growth did N#Cc1c(-c2ccccc2)cc(-c2ccc(Nc3nc(Nc4ccc(Cl)cc4)nc(Nc4ccc(Cl)cc4)n3)cc2)nc1N show?
-53.9

Quick one: growth of O=C(Nc1nc2ccccc2s1)c1ccc(F)cc1 ?
102
